Property: B-score of Tl+ flux slope (higher = more flux/activation; lower = inhibition); scope: individual compounds
# studySystem: Solute carrier family 12 member 5 (Homo sapiens)
# experimentDescription: modulation of human KCC2 ion transport – cell-based, HEK293 KCC2, FluoZin-2 fluorescence, MLSMR, primary screen (AID 1456);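 further: slope of fluorescence scaled to starting intensity during 10 to 20 s after thallium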
# measurementParameters: KCC2 cells, thallium flux FluoZin-2 fluorescence; at 10 µM
The whole screen tested about 190,000 compounds, of which about 4,100 (2.2%) were called active. Shown is part of a subset that was picked to be rich in actives.
Reply with just the number.

For orientation, consider the following solved cases.
INSERT INTO assay_data (compound, readoutnumber) VALUES
  ('COc1cccc(NC(=S)NCc2ccccn2)c1', -0.247),
  ('O=C(Nc1ccccc1)Nc1nc2ccccc2s1', 0.018),
  ('CCN(CCNC(=O)C1=C(C)C(=O)OC12CCC(C)CC2)c1ccccc1 (stereo unspecified)', 0.78);

Prompt: Which measured B-score of Tl+ flux slope (higher = more flux/activation; lower = inhibition) belongs to COc1ccc(C(=O)C2CCCN(C(=O)c3cnsn3)C2)c(C)c1 (stereo unspecified) , tested on Solute carrier family 12 member 5 (Homo sapiens)?
Response: -0.0096

Prompt: Recall the recorded B-score of Tl+ flux slope (higher = more flux/activation; lower = inhibition) for `Fc1ccc(Nc2nnns2)cc1` with Solute carrier family 12 member 5 (Homo sapiens) and state it.
Response: -0.138

Prompt: Form field - read-out: B-score of Tl+ flux slope (higher = more flux/activation; lower = inhibition); system: Solute carrier family 12 member 5 (Homo sapiens); submitted item: `COc1cc(NC(=O)c2ccccc2NS(=O)(=O)c2ccc(Cl)s2)cc(OC)c1`
Response: -5.32

Prompt: Hi! What's the reported B-score of Tl+ flux slope (higher = more flux/activation; lower = inhibition) for `O=C(Cn1nnc(-c2ccccc2)n1)NCc1ccc2c(c1)OCO2` on Solute carrier family 12 member 5 (Homo sapiens)?
Response: -1.86

Prompt: Entry `O=C(Cn1cnc2c(nnn2Cc2ccc(F)cc2)c1=O)NCc1ccc2c(c1)OCO2` , system Solute carrier family 12 member 5 (Homo sapiens): what B-score of Tl+ flux slope (higher = more flux/activation; lower = inhibition) was measured?
Response: -2.61

Prompt: Please tell me: B-score of Tl+ flux slope (higher = more flux/activation; lower = inhibition) of `COc1cc2nc(Cl)nc(NCCO)c2cc1OC` , system Solute carrier family 12 member 5 (Homo sapiens)?
Response: 0.407

Prompt: // fetch Solute carrier family 12 member 5 (Homo sapiens) B-score of Tl+ flux slope (higher = more flux/activation; lower = inhibition) for S=C(NCCc1ccccc1)N1CCn2cccc2C1c1ccncc1 (stereo unspecified)
Response: -2.41

Prompt: Lab note: need B-score of Tl+ flux slope (higher = more flux/activation; lower = inhibition) with Solute carrier family 12 member 5 (Homo sapiens) for entry `CS(=O)(=O)c1sc(C(=O)NC(=S)Nc2ccc(OC(F)(F)F)cc2)c2c1C=CCC2` , please look it up.
Response: 6.79

* * *

# studySystem: Solute carrier family 12 member 5 (Homo sapiens)
# experimentDescription: modulation of human KCC2 ion transport – cell-based, HEK293 KCC2, FluoZin-2 fluorescence, MLSMR, primary screen (AID 1456);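 further: slope of fluorescence scaled to starting intensity during 10 to 20 s after thallium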
# measurementParameters: KCC2 cells, thallium flux FluoZin-2 fluorescence; at 10 µM
In all, about 190,000 compounds went through this assay and about 4,100 (2.2%) were called active. Shown is part of a subset that was picked to be rich in actives.
Recorded B-score of Tl+ flux slope (higher = more flux/activation; lower = inhibition) values for a group of compounds are listed next.
The answer should be a number; do not append a unit.

Example compounds with recorded B-score of Tl+ flux slope (higher = more flux/activation; lower = inhibition):
INSERT INTO assay_data (compound, readoutnumber) VALUES
  ('Cc1ccc(C(O)P(=O)(OC(C)C)c2ccc(N(C)C)cc2)cc1 (stereo unspecified)', 0.0994),
  ('Cc1cc2c(=O)n(C)c(SCC(=O)c3cc4ccccc4o3)nc2s1', 0.288),
  ('CN(C)c1ccc(C=C2C(=O)OC3(CCCC3)OC2=O)cc1', -0.977),
  ('Cc1ccccc1Cn1c2ccccc2c2cnn(CC(=O)NCc3ccco3)c(=O)c21', -0.21);

Prompt: Item `Oc1c(Cl)cc(Cl)c(Cl)c1Cc1c(O)c(Cl)cc(Cl)c1Cl` has what recorded B-score of Tl+ flux slope (higher = more flux/activation; lower = inhibition)?
Response: 19.9

Prompt: Please report the recorded B-score of Tl+ flux slope (higher = more flux/activation; lower = inhibition) for `O=C(O)CCN(Cc1ccccc1)S(=O)(=O)c1c(Cl)cccc1Cl` .
Response: -6.63
